// provenance: patent US11702399B2

System: MM.1S cells (myeloma cells)
Assay: CTG cell proliferation, MM.1S
Assay type: cell-based
Details: Homo sapiens, MM1.S, Table 4 batch; CellTiter-Glo, 72-120 hours; read-out: IC50 value for MM.1S Inhibition
attribute.measured: IC50 (nM)
Numbers only, in nM.

Answered cases to consult:
Cc1nc2cc(F)cc(N)c2c(=O)n1[C@@H]1CCC(=O)NC1=O [Compound K103]; 465
[2H][C@@]1(n2c(C)nc3cc(F)cc(N)c3c2=O)CCC(=O)NC1=O [Compound K106]; 504
Cc1nc2cccc(N)c2c(=O)n1C1CCC(=O)NC1=O (stereo not drawn) [Compound K001, reference compound]; 275
[2H][C@]1(n2c(C)nc3cc(F)cc(N)c3c2=O)CCC(=O)NC1=O [Compound K105]; 33
Cc1nc2cc(F)cc(N)c2c(=O)n1[C@H]1CCC(=O)NC1=O [Compound K102]; 104

--- query ---
// IC50 value for [2H]C1(n2c(C)nc3cc(F)cc(N)c3c2=O)CCC(=O)NC1=O (stereo not drawn) [Compound K104] : 192

* * *

Tested on: WSU-DLCL-2 cells (diffuse large B cell lymphoma cells)
Experiment: CTG cell proliferation, WSU-DLCL-2
Assay type: cell-based
Settings: Homo sapiens, WSUDLCL2; Table 2 batch; CellTiter-Glo, 72-120 hours; read-out: IC50 value for WSU-DLCL2 Inhibition
For each record, write down the corresponding IC50.
Give bare numbers, in nM.

Cc1nc2cccc(N)c2c(=O)n1C1CCC(=O)NC1=O (stereo not drawn) [Compound K001, reference compound]; 469

--- query ---
// IC50 value for Cc1nc2cc(F)cc(N)c2c(=O)n1C1CCC(=O)NC1=O (stereo not drawn) : 179
